tested on: DU-145; test: Antiproliferative activity against human DU145 cells assessed as growth inhibition at 0.5 ug/mL after 48 hrs by MTT assay relative to control; assay type: functional; details: DU-145, 48 h, read-out: GI
Think of 40% as a floor: if inhibition of growth at 0.5 µg/mL stands on it or above, it is label 1; beneath it, label 0.

Exam item: decide whether the reported inhibition of growth at 0.5 µg/mL for C[C@]12CC[C@H](OC(=O)c3ccc(Cl)cc3)CC1=CC[C@@H]1[C@@H]2CC[C@]2(C)NC(=O)CC[C@@H]12 is at least 40%. label 0

Others:
Exam item: decide whether the reported inhibition of growth at 0.5 µg/mL for C[C@]12CC[C@H](OC(=O)c3ccc([N+](=O)[O-])cc3)CC1=CC[C@@H]1[C@@H]2CC[C@]2(C)NC(=O)CC[C@@H]12 is at least 40%. label 1

* * *

tested on: DU-145; assay: Antiproliferative activity against human DU145 cells assessed as growth inhibition at 1 ug/mL after 48 hrs by MTT assay relative to control; type: functional; details: DU-145, 48 h, read-out: GI
Think of 40% as a floor: if inhibition of growth at 1 µg/mL stands on it or above, it is condition met; beneath it, condition not met.

Reference set, count: 6
Exam item: decide whether the reported inhibition of growth at 1 µg/mL for C[C@]12CC[C@H](OC(=O)c3ccc(N)cc3)CC1=CC[C@@H]1[C@@H]2CC[C@]2(C)NC(=O)CC[C@@H]12 is at least 40%. condition met

Exam item: decide whether the reported inhibition of growth at 1 µg/mL for C[C@]12CC[C@H](OC(=O)c3ccc(O)cc3)CC1=CC[C@@H]1[C@@H]2CC[C@]2(C)NC(=O)CC[C@@H]12 is at least 40%. condition met

Exam item: decide whether the reported inhibition of growth at 1 µg/mL for COc1ccc(C(=O)O[C@H]2CC[C@@]3(C)C(=CC[C@@H]4[C@@H]3CC[C@]3(C)NC(=O)CC[C@@H]43)C2)cc1 is at least 40%. condition not met

Exam item: decide whether the reported inhibition of growth at 1 µg/mL for C[C@]12CC[C@H](OC(=O)c3ccc([N+](=O)[O-])cc3)CC1=CC[C@@H]1[C@@H]2CC[C@]2(C)NC(=O)CC[C@@H]12 is at least 40%. condition met

Exam item: decide whether the reported inhibition of growth at 1 µg/mL for C[C@]12CC[C@H](OC(=O)c3ccc(Cl)cc3)CC1=CC[C@@H]1[C@@H]2CC[C@]2(C)NC(=O)CC[C@@H]12 is at least 40%. condition met

Exam item: decide whether the reported inhibition of growth at 1 µg/mL for C[C@]12CC[C@H](OC(=O)c3ccccc3)CC1=CC[C@@H]1[C@@H]2CC[C@]2(C)NC(=O)CC[C@@H]12 is at least 40%. condition not met

Now turn to the next molecule.
Exam item: decide whether the reported inhibition of growth at 1 µg/mL for CC(C)(C)NC(=O)[C@H]1CC[C@H]2[C@@H]3CC[C@H]4NC(=O)C=C[C@]4(C)[C@H]3CC[C@]12C [FINASTERIDE] is at least 40%. condition not met

* * *

system: DU-145; experiment: Antiproliferative activity against human DU145 cells assessed as growth inhibition at 2 ug/mL after 48 hrs by MTT assay relative to control; format: functional; settings: DU-145, 48 h, read-out: GI
Readout Type: inhibition of growth at 2 µg/mL (%)
Your answer should be a plain number; it is taken to be in %.

Please review the entries below; each comes with its answer.
Provide measured inhibition of growth at 2 µg/mL value, entry: COc1ccc(C(=O)O[C@H]2CC[C@@]3(C)C(=CC[C@@H]4[C@@H]3CC[C@]3(C)NC(=O)CC[C@@H]43)C2)cc1 33.9

Provide measured inhibition of growth at 2 µg/mL value, entry: C[C@]12CC[C@H](OC(=O)c3ccccc3)CC1=CC[C@@H]1[C@@H]2CC[C@]2(C)NC(=O)CC[C@@H]12 45

Provide measured inhibition of growth at 2 µg/mL value, entry: C[C@]12CC[C@H](OC(=O)c3ccc(N)cc3)CC1=CC[C@@H]1[C@@H]2CC[C@]2(C)NC(=O)CC[C@@H]12 48

Others:
Provide measured inhibition of growth at 2 µg/mL value, entry: C[C@]12CC[C@H](OC(=O)Cc3ccccc3)CC1=CC[C@@H]1[C@@H]2CC[C@]2(C)NC(=O)CC[C@@H]12 48.3

Provide measured inhibition of growth at 2 µg/mL value, entry: C[C@]12CC[C@H](OC(=O)c3ccc(O)cc3)CC1=CC[C@@H]1[C@@H]2CC[C@]2(C)NC(=O)CC[C@@H]12 65.6

Provide measured inhibition of growth at 2 µg/mL value, entry: CC(C)(C)NC(=O)[C@H]1CC[C@H]2[C@@H]3CC[C@H]4NC(=O)C=C[C@]4(C)[C@H]3CC[C@]12C [FINASTERIDE] 36

* * *

test system: DU-145; experiment: Antiproliferative activity against human DU145 cells assessed as growth inhibition at 5 ug/mL after 48 hrs by MTT assay relative to control; format: functional; details: DU-145, 48 h, read-out: GI
Readout Type: inhibition of growth at 5 µg/mL

Please review the entries below; each comes with its answer.
Provide measured inhibition of growth at 5 µg/mL value, entry: C[C@]12CC[C@H](OC(=O)c3ccc([N+](=O)[O-])cc3)CC1=CC[C@@H]1[C@@H]2CC[C@]2(C)NC(=O)CC[C@@H]12 88.9%

Provide measured inhibition of growth at 5 µg/mL value, entry: Cc1ccc(C(=O)O[C@H]2CC[C@@]3(C)C(=CC[C@@H]4[C@@H]3CC[C@]3(C)NC(=O)CC[C@@H]43)C2)cc1 77%

Others:
Provide measured inhibition of growth at 5 µg/mL value, entry: COc1ccc(C(=O)O[C@H]2CC[C@@]3(C)C(=CC[C@@H]4[C@@H]3CC[C@]3(C)NC(=O)CC[C@@H]43)C2)cc1 43%

* * *

system: DU-145; assay: Antiproliferative activity against human DU145 cells assessed as growth inhibition at 5 ug/mL after 48 hrs by MTT assay relative to control; type: functional; details: DU-145, 48 h, read-out: GI
Readout Type: inhibition of growth at 5 µg/mL (%)
Your answer should be a plain number; it is taken to be in %.

Provide measured inhibition of growth at 5 µg/mL value, entry: C[C@]12CC[C@H](OC(=O)c3ccc(Cl)cc3)CC1=CC[C@@H]1[C@@H]2CC[C@]2(C)NC(=O)CC[C@@H]12 67.6

Provide measured inhibition of growth at 5 µg/mL value, entry: C[C@]12CC[C@H](OC(=O)c3ccc(N)cc3)CC1=CC[C@@H]1[C@@H]2CC[C@]2(C)NC(=O)CC[C@@H]12 82.4

Now look at this entry.
Provide measured inhibition of growth at 5 µg/mL value, entry: C[C@]12CC[C@H](OC(=O)c3ccc(O)cc3)CC1=CC[C@@H]1[C@@H]2CC[C@]2(C)NC(=O)CC[C@@H]12 69.5

* * *

Reported values of inhibition of growth at 5 µg/mL for individual entries
system: DU-145; test: Antiproliferative activity against human DU145 cells assessed as growth inhibition at 5 ug/mL after 48 hrs by MTT assay relative to control; type: functional; details: DU-145, 48 h, read-out: GI
Your answer should be a plain number; it is taken to be in %.

Please review the entries below; each comes with its answer.
Provide measured inhibition of growth at 5 µg/mL value, entry: C[C@]12CC[C@H](OC(=O)c3ccccc3)CC1=CC[C@@H]1[C@@H]2CC[C@]2(C)NC(=O)CC[C@@H]12 63.6

Provide measured inhibition of growth at 5 µg/mL value, entry: CC(C)(C)NC(=O)[C@H]1CC[C@H]2[C@@H]3CC[C@H]4NC(=O)C=C[C@]4(C)[C@H]3CC[C@]12C [FINASTERIDE] 78.5

Now look at this entry.
Provide measured inhibition of growth at 5 µg/mL value, entry: C[C@]12CC[C@H](OC(=O)Cc3ccccc3)CC1=CC[C@@H]1[C@@H]2CC[C@]2(C)NC(=O)CC[C@@H]12 73.1

* * *

Reported values of viability at 24 h, 5 ug/ml for individual entries
test: Cytotoxicity against Balb/C mouse macrophages assessed as cell viability at 5 ug/ml after 24 hrs by MTT assay; assay type: cell-based, Macrophage; conditions: read-out: Activity
Number first, unit second.

Provide measured viability at 24 h, 5 ug/ml value, entry: C[C@]12CC[C@H](OC(=O)CCl)CC1=CC[C@@H]1[C@@H]2CC[C@]2(C)NC(=O)CC[C@@H]12 6%

Now look at this entry.
Provide measured viability at 24 h, 5 ug/ml value, entry: C[C@]12CC[C@H](OC(=O)c3ccc(Cl)cc3)CC1=CC[C@@H]1[C@@H]2CC[C@]2(C)NC(=O)CC[C@@H]12 6%
